subject_of_test: ExsA (Pseudomonas aeruginosa)
test_details: In vitro activity of Mar inhibitors against ExsA: cell-free DNA binding assay
assay_conditions: purified ExsA from P. aeruginosa, inhibition of DNA binding in vitro
pEC50: −log10 of the molar value.
Here the recorded pEC50 is given for each entry.

{"molecule": "CC(=O)c1ccc(C(=O)Nc2ccc(-c3nc4ccc([N+](=O)[O-])cc4n3O)cc2F)cc1 [Compound BA]", "subject_of_test": "ExsA (Pseudomonas aeruginosa)", "pEC50": "> 5.00"}
{"molecule": "CCc1cc(-c2nc3ccc([N+](=O)[O-])cc3n2O)ccc1NC(=O)c1ccc(F)cc1 [Z]", "subject_of_test": "ExsA (Pseudomonas aeruginosa)", "pEC50": "< 4.60"}
{"molecule": "CC(=O)c1ccc(C(=O)Nc2ccc(-c3nc4ccc(C#N)cc4n3O)cc2)cc1 [Compound C]", "subject_of_test": "ExsA (Pseudomonas aeruginosa)", "pEC50": "> 5.00"}
{"molecule": "O=C(Nc1ccc(-c2nc3ccc([N+](=O)[O-])cc3n2O)cc1)c1ccc(-c2cncnc2)cc1 [R]", "subject_of_test": "ExsA (Pseudomonas aeruginosa)", "pEC50": "4.60 to 5.00"}

* * *

# EC50 annotations
subject_of_test: ExsA (Pseudomonas aeruginosa, UniProt P26993)
Sequence (P26993 whole entry): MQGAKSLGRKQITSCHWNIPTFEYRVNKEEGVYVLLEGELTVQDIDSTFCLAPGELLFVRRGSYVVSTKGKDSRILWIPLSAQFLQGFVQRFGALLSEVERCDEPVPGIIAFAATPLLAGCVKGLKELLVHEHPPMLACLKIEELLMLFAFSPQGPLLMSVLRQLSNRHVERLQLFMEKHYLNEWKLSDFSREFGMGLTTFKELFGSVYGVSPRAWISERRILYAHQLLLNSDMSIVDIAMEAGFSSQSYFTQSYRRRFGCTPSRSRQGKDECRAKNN
test_details: In vitro activity of Mar inhibitors against ExsA: cell-free DNA binding assay
assay_conditions: purified ExsA from P. aeruginosa, inhibition of DNA binding in vitro

{"compound_string": "O=C(Nc1ccc(-c2nc3ccc([N+](=O)[O-])cc3n2O)cn1)c1ccc(F)cc1", "EC50": "10.1 to 25 µM"}
{"compound_string": "O=C(/C=C/c1ccc(F)cc1)Nc1ccc(-c2nc3ccc(-n4ccnc4)cc3n2O)cc1", "EC50": "10.1 to 25 µM"}
{"compound_string": "CC(=O)c1ccc(/C=C/C(=O)Nc2ccc(-c3nc4ccc([N+](=O)[O-])cc4n3O)cc2)cc1", "EC50": "< 10 µM"}
{"compound_string": "CC(=O)c1ccc(/C=C/C(=O)Nc2ccc(-c3nc4cc(OCCN5CCN(C)CC5)c([N+](=O)[O-])cc4n3O)cc2)cc1", "EC50": "< 10 µM"}
{"compound_string": "NC(=NO)c1ccc2nc(-c3ccc(NC(=O)c4ccc(F)cc4)cc3)n(O)c2c1", "EC50": "> 25.1 µM"}
{"compound_string": "CCc1cc(-c2nc3ccc([N+](=O)[O-])cc3n2O)ccc1NC(=O)/C=C/c1ccc(C)cc1", "EC50": "< 10 µM"}
{"compound_string": "O=C(Nc1ccc(-c2nc3ccc([N+](=O)[O-])cc3n2O)cc1)/C(=C/c1ccccc1)c1ccccc1", "EC50": "10.1 to 25 µM"}
{"compound_string": "O=C(Nc1ccc(-c2nc3ccc([N+](=O)[O-])cc3n2O)cc1)C1=Cc2ccccc2OC1", "EC50": "10.1 to 25 µM"}
{"compound_string": "Cc1cc(-c2nc3ccc([N+](=O)[O-])cc3n2O)ccc1NC(=O)/C=C/c1ccc(F)cc1", "EC50": "> 25.1 µM"}
{"compound_string": "Cc1cc2nc(-c3ccc(NC(=O)/C=C/c4ccc(F)cc4)cc3)n(O)c2cc1[N+](=O)[O-]", "EC50": "< 10 µM"}
{"compound_string": "COc1cc(C(=O)Nc2ccc(-c3nc4ccc([N+](=O)[O-])cc4n3O)cc2)ccc1F", "EC50": "10.1 to 25 µM"}
{"compound_string": "CC(=O)c1ccc(C(=O)Nc2ccc(-c3nc4ccc([N+](=O)[O-])cc4n3O)nc2)cc1", "EC50": "10.1 to 25 µM"}
{"compound_string": "CN(C)CCN(C)c1cc2nc(-c3ccc(NC(=O)/C=C/c4ccc(F)cc4)cc3)n(O)c2cc1[N+](=O)[O-]", "EC50": "< 10 µM"}
{"compound_string": "CC(=O)c1ccc(/C=C/C(=O)Nc2ccc(-c3nc4ccc(C#N)cc4n3O)cc2)cc1", "EC50": "10.1 to 25 µM"}
{"compound_string": "N#Cc1ccc2nc(-c3ccc(NC(=O)/C=C/c4ccc(F)cc4)cc3)n(O)c2c1", "EC50": "< 10 µM"}
{"compound_string": "Cc1cc2nc(-c3ccc(NC(=O)c4ccc(-c5cnco5)cc4)cc3)n(O)c2cc1[N+](=O)[O-]", "EC50": "< 10 µM"}
{"compound_string": "CN(C)CCOc1cc2nc(-c3ccc(NC(=O)/C=C/c4ccc(F)cc4)cc3)n(O)c2cc1[N+](=O)[O-]", "EC50": "> 25.1 µM"}
{"compound_string": "O=C(Nc1ccc(-c2nc3ccc([N+](=O)[O-])cc3n2O)cc1)c1ccc2c(c1)CCCC2=O", "EC50": "> 25.1 µM"}
{"compound_string": "O=C(/C=C/c1ccc(-n2cncn2)cc1)Nc1ccc(-c2nc3ccc([N+](=O)[O-])cc3n2O)cc1", "EC50": "< 10 µM"}
{"compound_string": "O=C(/C=C/c1ccc(F)cc1)Nc1ccc(-c2nc3ccc([N+](=O)[O-])cc3n2O)cn1", "EC50": "< 10 µM"}
{"compound_string": "COc1cc(F)ccc1C(=O)Nc1ccc(-c2nc3ccc([N+](=O)[O-])cc3n2O)cc1", "EC50": "< 10 µM"}
{"compound_string": "COc1cc(NC(=O)/C=C/c2ccc(F)cc2)ccc1-c1nc2ccc([N+](=O)[O-])cc2n1O", "EC50": "10.1 to 25 µM"}
{"compound_string": "O=C(Nc1ccc(-c2nc3ccc([N+](=O)[O-])cc3n2O)cc1)/C(F)=C/c1ccccc1", "EC50": "< 10 µM"}
{"compound_string": "O=C(/C=C/c1ccc(F)cc1)Nc1ccc(-c2nc3ncc([N+](=O)[O-])cc3n2O)c(F)c1", "EC50": "< 10 µM"}
{"compound_string": "CCOc1cc2nc(-c3ccc(NC(=O)/C=C/c4ccc(F)cc4)cc3)n(O)c2cc1[N+](=O)[O-]", "EC50": "< 10 µM"}
{"compound_string": "O=C(/C=C/c1ccc(F)cc1)Nc1ccc(-c2nc3ccc([N+](=O)[O-])cc3n2OCP(=O)(O)O)cc1", "EC50": "< 10 µM"}
{"compound_string": "CN1CCN(CCOc2cc3nc(-c4ccc(NC(=O)/C=C/c5ccc(F)cc5)cc4)n(O)c3cc2[N+](=O)[O-])CC1", "EC50": "< 10 µM"}
{"compound_string": "CC(C)c1ccc(/C=C/C(=O)Nc2ccc(-c3nc4ccc([N+](=O)[O-])cc4n3O)cc2)cc1", "EC50": "> 25.1 µM"}
{"compound_string": "O=C(/C=C/c1ccc(F)cc1F)Nc1ccc(-c2nc3ccc([N+](=O)[O-])cc3n2O)nc1", "EC50": "< 10 µM"}
{"compound_string": "CCc1cc(-c2nc3ccc([N+](=O)[O-])cc3n2O)ccc1NC(=O)c1ccc(C(C)=O)cc1", "EC50": "10.1 to 25 µM"}
{"compound_string": "N#Cc1ccc2nc(-c3ccc(NC(=O)c4ccc(-n5ccnc5)cc4)cc3)n(O)c2c1", "EC50": "> 25.1 µM"}
{"compound_string": "COc1ccc(/C=C/C(=O)Nc2ccc(-c3nc4ccc([N+](=O)[O-])cc4n3O)cc2)c(OC)c1", "EC50": "< 10 µM"}
